Please respond with reported glycan array binding signal (z-score) for every item in the list.
- tested_system: Gal(b1-3)GalNAc
- run_description: glycan array binding signal (z-score within array); higher = stronger binding
- condition_set: glycan notation: IUPAC condensed, linker removed
Shown is part of a subset that was picked to be rich in the strongest signals.
Write no unit; give the number alone.

Per the record, 3FTT (Staphylococcus aureus), Q5HCZ5 (protein) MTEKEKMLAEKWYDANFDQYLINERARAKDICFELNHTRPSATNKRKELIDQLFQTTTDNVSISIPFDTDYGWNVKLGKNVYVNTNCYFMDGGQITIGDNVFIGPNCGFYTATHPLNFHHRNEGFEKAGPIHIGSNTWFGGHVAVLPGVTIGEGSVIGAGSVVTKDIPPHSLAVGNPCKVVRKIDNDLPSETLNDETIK has glycan array binding signal (z-score) of -0.105

Per the record, FedF (Escherichia coli), Q47212 (protein) MRLKYILIIPLLLISLSVFASTLQVDKSVSYDWINSSASSAQVTGTLLGTGKTNTTQMPALYTWQHQIYNVNFIPSSSGTLTCQAGTILVWKNGRETQYALECRVSIHHSSGSINESQWGQQSQVGFGTACGNKKCRFTGFEISLRIPPNAQTYPLSSGDLKGSFSLTNKEVNWSASIYVPAIAKSYRLDTSITLPDTVNLKQNQATPVYYTFSAPSVSNTITGIPNQNDMPSSNVKLTIGPIQSKTTALYVQPDATGSWYDLSKSITMTVVKSSMLNFKGINAKPGNVTLSVPIVFEIQ has glycan array binding signal (z-score) of -0.092

Per the record, RfpB (Mycobacterium tuberculosum), O05594 (protein) MAAGLVTASMSLSTAVAHAGPSPNWDAVAQCESGGNWAANTGNGKYGGLQFKPATWAAFGGVGNPAAASREQQIAVANRVLAEQGLDAWPTCGAASGLPIALWSKPAQGIKHAGPSPNWDAVAQCESGGNWAANTGNGKYGGLQFKPATWAAFGGVGNPAAASREQQIAVANRVLAEQGLDAWPTCGA has glycan array binding signal (z-score) of -0.202

Per the record, Epa12 (Candida glabrata) (protein) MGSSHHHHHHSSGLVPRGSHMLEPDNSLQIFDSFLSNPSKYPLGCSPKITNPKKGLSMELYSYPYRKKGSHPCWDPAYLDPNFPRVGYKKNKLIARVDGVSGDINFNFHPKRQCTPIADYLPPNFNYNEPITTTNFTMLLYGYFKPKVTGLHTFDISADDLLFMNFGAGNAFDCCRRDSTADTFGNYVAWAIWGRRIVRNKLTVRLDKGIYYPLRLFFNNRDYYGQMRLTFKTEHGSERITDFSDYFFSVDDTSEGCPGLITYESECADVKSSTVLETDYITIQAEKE has glycan array binding signal (z-score) of 0.135

Per the record, SSP1 (Sclerotinia sclerotiorum), XP_001584968 (protein) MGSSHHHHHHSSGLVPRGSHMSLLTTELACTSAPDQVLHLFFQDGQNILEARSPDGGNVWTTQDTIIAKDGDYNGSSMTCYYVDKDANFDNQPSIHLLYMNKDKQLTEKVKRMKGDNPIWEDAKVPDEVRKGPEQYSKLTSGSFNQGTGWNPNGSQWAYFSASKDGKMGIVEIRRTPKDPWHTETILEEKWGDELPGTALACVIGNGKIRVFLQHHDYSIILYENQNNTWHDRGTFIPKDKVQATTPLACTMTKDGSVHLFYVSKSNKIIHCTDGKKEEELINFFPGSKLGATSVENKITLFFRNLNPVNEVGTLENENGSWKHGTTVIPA has glycan array binding signal (z-score) of -0.111
